All figures here come from the RNAGym collection of RNA variant scans (doi:10.1002/anie.201605470).

B1: Osa-1-4 twister ribozyme (parent)
chain: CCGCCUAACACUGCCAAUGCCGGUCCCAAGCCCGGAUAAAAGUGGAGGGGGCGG

Variants of: B1
TEST METHOD NOTES: self-cleavage, relative activity (ratio to wild type); higher = more cleavage; co-transcriptional
REPORTED METRIC: self-cleavage
Respond using a number only.

Need self-cleavage of A16C A28U , thanks.
0.76

Item C11G G42U has what recorded self-cleavage?
0.61

Bench note: what self-cleavage did C21A G48U show?
0.05

Suppose we examine the variant A40C C20G ; what self-cleavage value has been reported?
0.04

Recorded self-cleavage for C21G U12A , please?
0.08

Fill in the blank: the reported self-cleavage of A10G U43C is ____.
0.96

Please give the measured self-cleavage for this variant: G22U U37C
0.55

Consider the variant shown here: G47A U37A What is its recorded self-cleavage?
0.28

Which self-cleavage is listed for A16U A29C ?
0.04

Look up self-cleavage: A29U C26A
0.03

Reported self-cleavage, variant A8U C25U : ____
0.11

So what's the measured self-cleavage for this one? A10G C32A
0.07

# get_value(readout='self-cleavage', item= A41G U12A )
0.87

Dear colleague, I am looking for the recorded self-cleavage of the following variant: C9A G19A
0.1

Can you look up the measured self-cleavage of C52G G54U for me?
0.97

I'd like to know its self-cleavage. The variant in question is G35A U18A
0.79

Record request: self-cleavage value, item A41G C15U
0.22

Fill in: self-cleavage of C15G C9G is ___
0.66

Entry under review: A40U G13A . Reported self-cleavage?
0.06

Reported self-cleavage, variant C9G G50U : ____
0.84

Request the reported self-cleavage associated with C11G G45C
0.04

Given the entry C33U C52G , report its measured self-cleavage.
0.88

# get_value(readout='self-cleavage', item= A38G C15A )
0.33

Which value of self-cleavage has been reported for G34A G42A in the records?
0.11
